Target chain: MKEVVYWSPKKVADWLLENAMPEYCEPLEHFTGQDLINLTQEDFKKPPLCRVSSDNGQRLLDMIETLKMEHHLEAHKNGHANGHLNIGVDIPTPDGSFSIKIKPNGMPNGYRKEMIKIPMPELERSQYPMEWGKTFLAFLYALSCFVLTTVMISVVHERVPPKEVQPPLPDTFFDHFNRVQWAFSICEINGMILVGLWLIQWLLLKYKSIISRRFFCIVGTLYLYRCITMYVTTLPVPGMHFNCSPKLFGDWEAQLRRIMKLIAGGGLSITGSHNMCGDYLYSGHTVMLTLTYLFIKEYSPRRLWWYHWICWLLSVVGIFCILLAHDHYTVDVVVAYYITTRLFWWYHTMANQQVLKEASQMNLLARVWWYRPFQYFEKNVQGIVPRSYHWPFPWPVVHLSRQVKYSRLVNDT
pIC50: −log10 of the molar value.
parameter-measured: pIC50

Below, 4 compounds whose answers are already recorded.
COc1ccccc1COc1cccc2onc(Nc3cccnc3)c12 [Scheme I-16] | 4.32
Cc1ccccc1COc1cccc2onc(Nc3cccnc3)c12 [Scheme I-10] | 4.15
Clc1cccc(Cl)c1COc1cccc2onc(Nc3cccnc3)c12 [Scheme I-26] | 4.15
FC(F)(F)Oc1ccccc1COc1cccc2onc(Nc3cccnc3)c12 [Scheme I-19] | 4.17

[1] Clc1cccc(COc2cccc3onc(Nc4cccnc4)c23)c1 [Scheme I-8]
[2] CCc1ccccc1COc1cccc2onc(Nc3cccnc3)c12 [Scheme I-1]
Qu. // returns 1 or 2 , whichever has the lower pIC50 Could you answer with the label of the item you picked?
Ans. 1
